Form field: ED50 (one value per entry).
System: Strep. pyogenes C-203
Assay: median protective dose in mice given lethal systemic infections, Strep. pyogenes C-203
Type: in vivo
Conditions: Streptococcus pyogenes, C203, PO, single dose at time of challenge, read-out: median protective dose (PD50)
Counter-ions that a name gives are not always drawn.
READOUT: ED50

MOLECULE: CN[C@@H](C)[C@@H]1CCN(c2nc3c(cc2F)c(=O)c(C(=O)O)cn3C2CC2)C1 [Example 21]
OBSERVED: 2 mg/kg

MOLECULE: C[C@H]([C@@H]1CCN(c2nc3c(cc2F)c(=O)c(C(=O)O)cn3C2CC2)C1)N(C)C [Example 72]
OBSERVED: 2 mg/kg

MOLECULE: CN[C@H](C)[C@H]1CCN(c2c(F)cc3c(=O)c(C(=O)O)cn(C4CC4)c3c2OC)C1 [Example 38]
OBSERVED: 6 mg/kg

MOLECULE: CCN[C@@H](C)[C@@H]1CCN(c2nc3c(cc2F)c(=O)c(C(=O)O)cn3C2CC2)C1 [Example 78]
OBSERVED: 6 mg/kg

MOLECULE: CCN[C@H](C)[C@H]1CCN(c2nc3c(cc2F)c(=O)c(C(=O)O)cn3C2CC2)C1 [Example 79]
OBSERVED: 2 mg/kg

MOLECULE: CN[C@@H](C)[C@@H]1CCN(c2nc3c(cc2F)c(=O)c(C(=O)O)cn3-c2ccc(F)cc2F)C1 [Example 64, monohydrochloride]
OBSERVED: 4 mg/kg

MOLECULE: CCN[C@H](C)[C@@H]1CCN(c2c(F)cc3c(=O)c(C(=O)O)cn(C4CC4)c3c2OC)C1 [Example 17]
OBSERVED: 2 mg/kg

MOLECULE: C[C@@H](N)[C@@H]1CCN(c2nc3c(cc2F)c(=O)c(C(=O)O)cn3-c2ccc(F)cc2F)C1 [Example 48]
OBSERVED: 9 mg/kg
